Record form. Attribute: SIT-M, selectivity index (Macrophages CC50/T. cruzi IC50). Fill in for each entry.
tested on: epimastigote forms of Trypanosoma cruzi (Y strain); experiment: Antiproliferative assay (XTT), epimastigote forms, 96 h; format: cell-based; details: macrophages vs epimastigote

*Q* Provide value of SIT-M, selectivity index (Macrophages CC50/T. cruzi IC50) for this record tested with epimastigote forms of Trypanosoma cruzi (Y strain): `COc1ccc(NCc2c(C(=O)N/N=C/c3ccc(-c4cccs4)s3)noc2-c2ccc(Cl)cc2)cc1`
*A* 10.1

*Q* Provide value of SIT-M, selectivity index (Macrophages CC50/T. cruzi IC50) for this record tested with epimastigote forms of Trypanosoma cruzi (Y strain): `NNC(=O)c1noc(-c2ccc([N+](=O)[O-])cc2)c1CNc1ccccc1`
*A* 3.59

*Q* Provide value of SIT-M, selectivity index (Macrophages CC50/T. cruzi IC50) for this record tested with epimastigote forms of Trypanosoma cruzi (Y strain): `NNC(=O)c1noc(-c2ccc(F)cc2)c1CNc1ccccc1`
*A* 7.63

*Q* Provide value of SIT-M, selectivity index (Macrophages CC50/T. cruzi IC50) for this record tested with epimastigote forms of Trypanosoma cruzi (Y strain): `O=C(N/N=C/c1ccccc1)c1noc(-c2ccc(Cl)cc2)c1CNc1ccccc1`
*A* 4.74

---

test: Cytotoxicity assay in mammalian cells (MTT), fibroblasts, 72 h; assay type: cell-based; conditions: mouse, L929 fibroblast cells, pH 7.2; 50 % inhibition of fibroblast growth, 72 h, MTT
Record form. Attribute: CC50 at 72 h. Fill in for each entry.
Your answer is read as µM, so omit the unit and give the number.

*Q* Which CC50 at 72 h value belongs to `NNC(=O)c1noc(-c2ccc(F)cc2)c1CNc1ccccc1` ?
*A* 198

*Q* Which CC50 at 72 h value belongs to `O=C(N/N=C/c1ccc(-c2cccs2)s1)c1noc(-c2ccc(F)cc2)c1CNc1ccc(Cl)cc1` ?
*A* 215

*Q* Which CC50 at 72 h value belongs to `COc1ccc(NCc2c(C(=O)N/N=C/c3ccc(-c4cccs4)s3)noc2-c2ccc(Cl)cc2)cc1` ?
*A* 398

*Q* Which CC50 at 72 h value belongs to `COc1ccc(NCc2c(C(=O)N/N=C/c3ccc(-c4cccs4)s3)noc2-c2ccccc2)cc1` ?
*A* 198

*Q* Which CC50 at 72 h value belongs to `NNC(=O)c1noc(-c2ccc(Cl)cc2)c1CNc1ccc(Cl)cc1` ?
*A* 381

*Q* Which CC50 at 72 h value belongs to `O=C(N/N=C/c1ccccn1)c1noc(-c2ccccc2)c1CNc1ccc(Cl)cc1` ?
*A* 338

*Q* Which CC50 at 72 h value belongs to `O=C(N/N=C/c1ccccn1)c1noc(-c2ccc(Cl)cc2)c1CNc1ccccc1` ?
*A* 298

*Q* Which CC50 at 72 h value belongs to `COc1ccc(NCc2c(C(=O)N/N=C/c3ccccn3)noc2-c2ccc(F)cc2)cc1` ?
*A* 291

*Q* Which CC50 at 72 h value belongs to `O=C(N/N=C/c1ccccc1)c1noc(-c2ccc([N+](=O)[O-])cc2)c1CNc1ccc(Cl)cc1` ?
*A* 398

*Q* Which CC50 at 72 h value belongs to `COc1ccc(NCc2c(C(=O)NN)noc2-c2ccc(Cl)cc2)cc1` ?
*A* 310

*Q* Which CC50 at 72 h value belongs to `O=C(N/N=C/c1ccccc1)c1noc(-c2ccc([N+](=O)[O-])cc2)c1CNc1ccccc1` ?
*A* 118

*Q* Which CC50 at 72 h value belongs to `O=C(N/N=C/c1ccccn1)c1noc(-c2ccc(F)cc2)c1CNc1ccccc1` ?
*A* 403

*Q* Which CC50 at 72 h value belongs to `O=C(N/N=C/c1ccc(-c2cccs2)s1)c1noc(-c2ccc(Cl)cc2)c1CNc1ccccc1` ?
*A* 347

*Q* Which CC50 at 72 h value belongs to `COc1ccc(NCc2c(C(=O)N/N=C/c3ccccn3)noc2-c2ccc(Cl)cc2)cc1` ?
*A* 107

*Q* Which CC50 at 72 h value belongs to `NNC(=O)c1noc(-c2ccc(F)cc2)c1CNc1ccc(Cl)cc1` ?
*A* 802

*Q* Which CC50 at 72 h value belongs to `NNC(=O)c1noc(-c2ccc(Cl)cc2)c1CNc1ccccc1` ?
*A* 305

*Q* Which CC50 at 72 h value belongs to `O=C(N/N=C/c1ccccn1)c1noc(-c2ccc([N+](=O)[O-])cc2)c1CNc1ccccc1` ?
*A* 407

*Q* Which CC50 at 72 h value belongs to `COc1ccc(NCc2c(C(=O)N/N=C/c3ccc(-c4cccs4)s3)noc2-c2ccc([N+](=O)[O-])cc2)cc1` ?
*A* 231

---

Record form. Attribute: log10 IC50. Fill in for each entry.
system: promastigote forms of Leishmania amazonensis (WHOM/BR/75/JOSEFA strain); assay: Antiproliferative assay (XTT), promastigote forms, 72 h; format: cell-based; conditions: Leishmania amazonensis; promastigote form, 72 h, XTT; read-out: L. amazonensis IC50
Scale type: logarithmic (base 10). Underlying IC50 unit: µM.

*Q* Which log10 IC50 value belongs to O=C(N/N=C/c1ccccn1)c1noc(-c2ccc(Cl)cc2)c1CNc1ccc(Cl)cc1 [5 db] ?
*A* 1.94

*Q* Which log10 IC50 value belongs to O=C(N/N=C/c1ccccc1)c1noc(-c2ccc(F)cc2)c1CNc1ccc(Cl)cc1 [4 cb] ?
*A* 1.94

*Q* Which log10 IC50 value belongs to NNC(=O)c1noc(-c2ccc(F)cc2)c1CNc1ccc(Cl)cc1 [3 cb] ?
*A* 2.24

*Q* Which log10 IC50 value belongs to O=C(N/N=C/c1ccc(-c2cccs2)s1)c1noc(-c2ccc(Cl)cc2)c1CNc1ccc(Cl)cc1 [6 db] ?
*A* 1.59

*Q* Which log10 IC50 value belongs to O=C(N/N=C/c1ccc(-c2cccs2)s1)c1noc(-c2ccccc2)c1CNc1ccccc1 [6 ba] ?
*A* 1.67

*Q* Which log10 IC50 value belongs to NNC(=O)c1noc(-c2ccc(Cl)cc2)c1CNc1ccc(Cl)cc1 [3 db] ?
*A* 1.77

*Q* Which log10 IC50 value belongs to O=C(N/N=C/c1ccccc1)c1noc(-c2ccc([N+](=O)[O-])cc2)c1CNc1ccc(Cl)cc1 [4 ab] ?
*A* 2.12

*Q* Which log10 IC50 value belongs to O=C(N/N=C/c1ccc(-c2cccs2)s1)c1noc(-c2ccc([N+](=O)[O-])cc2)c1CNc1ccc(Cl)cc1 [6 ab] ?
*A* 1.10

*Q* Which log10 IC50 value belongs to COc1ccc(NCc2c(C(=O)N/N=C/c3ccccc3)noc2-c2ccccc2)cc1 [4 bc] ?
*A* 1.33

*Q* Which log10 IC50 value belongs to O=C(N/N=C/c1ccccc1)c1noc(-c2ccccc2)c1CNc1ccccc1 [4 ba] ?
*A* 1.89

*Q* Which log10 IC50 value belongs to O=C(N/N=C/c1ccccc1)c1noc(-c2ccc(Cl)cc2)c1CNc1ccccc1 [4 da] ?
*A* 1.69

*Q* Which log10 IC50 value belongs to O=C(N/N=C/c1ccccc1)c1noc(-c2ccc(F)cc2)c1CNc1ccccc1 [4 ca] ?
*A* 2.13

---

assay: Cytotoxicity assay in mammalian cells (MTT), macrophages, 48 h; format: cell-based; conditions: mouse, J774 A1 macrophages, pH 7.2; 50 % inhibition of macrophages growth, 48 h, MTT
Lab note - cut at 300 µM for CC50 at 48 h: satisfied if strictly below, not satisfied if not.

*Q* API: query returns whether the compound falls strictly under 300 µM in CC50 at 48 h. Query: `NNC(=O)c1noc(-c2ccccc2)c1CNc1ccccc1`
*A* satisfied

*Q* API: query returns whether the compound falls strictly under 300 µM in CC50 at 48 h. Query: `O=C(N/N=C/c1ccccc1)c1noc(-c2ccc([N+](=O)[O-])cc2)c1CNc1ccccc1`
*A* satisfied

*Q* API: query returns whether the compound falls strictly under 300 µM in CC50 at 48 h. Query: `NNC(=O)c1noc(-c2ccc(Cl)cc2)c1CNc1ccccc1`
*A* satisfied

*Q* API: query returns whether the compound falls strictly under 300 µM in CC50 at 48 h. Query: `COc1ccc(NCc2c(C(=O)NN)noc2-c2ccccc2)cc1`
*A* satisfied

*Q* API: query returns whether the compound falls strictly under 300 µM in CC50 at 48 h. Query: `O=C(N/N=C/c1ccc(-c2cccs2)s1)c1noc(-c2ccccc2)c1CNc1ccccc1`
*A* satisfied

*Q* API: query returns whether the compound falls strictly under 300 µM in CC50 at 48 h. Query: `NNC(=O)c1noc(-c2ccc(Cl)cc2)c1CNc1ccc(Cl)cc1`
*A* not satisfied

*Q* API: query returns whether the compound falls strictly under 300 µM in CC50 at 48 h. Query: `NNC(=O)c1noc(-c2ccc([N+](=O)[O-])cc2)c1CNc1ccccc1`
*A* satisfied

*Q* API: query returns whether the compound falls strictly under 300 µM in CC50 at 48 h. Query: `O=C(N/N=C/c1ccccc1)c1noc(-c2ccc(F)cc2)c1CNc1ccc(Cl)cc1`
*A* not satisfied

*Q* API: query returns whether the compound falls strictly under 300 µM in CC50 at 48 h. Query: `COc1ccc(NCc2c(C(=O)NN)noc2-c2ccc([N+](=O)[O-])cc2)cc1`
*A* not satisfied

Provenance of the data: paper PMC8485799
